Cited source: paper PMC11480844

B1: H2-Kb / Ed9 (parent complex)
chain 1: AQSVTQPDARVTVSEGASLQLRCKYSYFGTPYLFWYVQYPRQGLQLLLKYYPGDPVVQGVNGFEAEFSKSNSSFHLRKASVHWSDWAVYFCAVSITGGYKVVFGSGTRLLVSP
chain 2: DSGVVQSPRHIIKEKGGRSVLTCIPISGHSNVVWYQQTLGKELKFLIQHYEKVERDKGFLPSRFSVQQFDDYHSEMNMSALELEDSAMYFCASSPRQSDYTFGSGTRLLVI
chain 3: not shown
chain 4: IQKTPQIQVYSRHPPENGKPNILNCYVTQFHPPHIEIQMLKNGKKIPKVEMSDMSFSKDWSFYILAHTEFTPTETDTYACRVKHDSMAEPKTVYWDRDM
chain 5: SIINFEKL

variants of: B1; experiment: % of reporter cells activated (NFAT-GFP), raw; further: test concentration or dose not given here
experimental_readout: ratio to parent

a. chain 5 I2S
b. chain 5 S1I
c. chain 5 E6F
d. chain 5 I3C
Would you mind ranking these variants by ascending ratio to parent? Please list the labels according to the requested order. b, c, d, a
(b: 0.0106, c: 0.0676, d: 0.633, a: 1.18)

1. chain 5 K7V
2. chain 5 I2A
3. chain 5 K7C
4. chain 5 N4M
Form: Sort by [ratio to parent] Order [ ascending ] Please list the labels according to the requested order. 4, 3, 1, 2

a. chain 5 F5S
b. chain 5 K7W
c. chain 5 E6A
d. chain 5 N4S
Output the entries ranked by ratio to parent from maximum down to minimum. Please list the labels according to the requested order. a, b, c, d

a. chain 5 I2W
b. chain 5 I2T
c. chain 5 E6V
Form: Sort by [ratio to parent] Order [ ascending ] Please list the labels according to the requested order. c, a, b
